Biological target: DiHydroFolate Reductase (DHFR) (Rattus norvegicus, UniProt Q920D2)
Construct: from tissue; host or cells: rat liver homogenate supernatant
Sequence (Q920D2 whole entry): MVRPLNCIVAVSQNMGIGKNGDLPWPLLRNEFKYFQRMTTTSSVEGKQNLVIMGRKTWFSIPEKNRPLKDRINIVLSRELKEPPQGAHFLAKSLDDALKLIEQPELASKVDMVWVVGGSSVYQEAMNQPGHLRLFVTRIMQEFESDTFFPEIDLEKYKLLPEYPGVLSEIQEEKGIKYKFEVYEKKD
Test: Inhibition of binding of [3H]methotrexate to rat liver homogenate supernatant
Conditions: 125 μM; read-out: [3H]mtx binding (% inhibition @ 125 μM)
measuredMetric: inhibition at 125 µM (%)
Numbers only; they are read as %.

>>> resultnumber("Nc1nnc(-c2cccc(OCc3ccc(Cl)cc3Cl)c2)c(N)n1")
96
>>> resultnumber("Nc1nnc(-c2cccc3c2-c2ccccc2C3)c(N)n1")
-3
>>> resultnumber("Nc1ncc(-c2cccc(Cl)c2Cl)c(N)n1")
76
>>> resultnumber("Cn1nc(-c2ccc(Oc3ccccc3)cc2)c(N)nc1=N")
25
>>> resultnumber("Nc1nnc(-c2sc(Cl)c(Cl)c2Cl)c(N)n1")
-1

Identify inhibition at 125 µM associated with the compound Cn1nc(-c2cc(C(F)(F)F)cc(C(F)(F)F)c2)c(N)nc1=N
-1

Identify inhibition at 125 µM associated with the compound Nc1nnc(C2(c3ccc(Cl)cc3)CCC2)c(N)n1
1

Identify inhibition at 125 µM associated with the compound CC(C)(C)c1ccc(-c2nnc(N)nc2N)cc1
101

====

Target: L-Type Calcium Channels
Experiment: L-type calcium channels: inhibition of binding of [3H]nitrendipine to rat cerebral cortex membranes
Conditions: read-out: L-type Ca2+ IC50 (μM) (extrapolated from 10 μM inh'n); extrapolated assuming binding slope 1.0
Below, each of the molecules is paired with its reported IC50 value.
Numbers only; they are read as µM.

>>> resultnumber("Nc1cnc(-c2cc(Cl)cc(Cl)c2Cl)c(N)n1 [CEN-86]")
101

Identify IC50 associated with the molecule Nc1nnc(-c2ccc3ccccc3c2)c(N)n1 [CEN-73]
115

Identify IC50 associated with the molecule Nc1nnc(-c2cccc(Oc3ccccc3)c2)c(N)n1 [CEN-84]
133

Identify IC50 associated with the molecule Nc1cnc(-c2cccc(Cl)c2Cl)c(N)n1 [CEN-87]
133

Identify IC50 associated with the molecule Nc1nnc(-c2sc(Cl)c(Cl)c2Cl)c(N)n1 [CEN-79]
48.8

====

Where a name gives a salt, the structure may show the parent alone.
Below, each of the molecules is paired with its reported melting point value.

>>> result("Nc1nnc(-c2ccc(-c3ccccc3)o2)c(N)n1")
"247 to 249 °C"
>>> result("Cn1nc(C2(c3ccc(Cl)cc3)CCCC2)c(N)nc1=N (as salt: methanesulfonate)")
"272 to 273 °C"

Identify melting point associated with the molecule Cn1nc(-c2cccc3ccccc23)c(N)nc1=N
248 to 250 °C

Identify melting point associated with the molecule Nc1nnc(C(c2ccccc2)(c2ccccc2)c2ccccc2)c(N)n1
124 to 126 °C

====

Target: DiHydroFolate Reductase (DHFR) (Rattus norvegicus)
Construct: from tissue; host or cells: rat liver homogenate supernatant
Assay: Inhibition of binding of [3H]methotrexate to rat liver homogenate supernatant
Conditions: read-out: [3H]mtx binding % inhibition (* 99 μM, *** uses fresh batch of supernatant), 99 μM; fresh batch of supernatant
Below, each of the compounds is paired with its reported inhibition at 99 µM value.
Numbers only; they are read as %.

Identify inhibition at 99 µM associated with the compound Nc1nnc(-c2cc(C(F)(F)F)cc(Cl)c2F)c(N)n1 [CEN-197]
95

Identify inhibition at 99 µM associated with the compound Nc1nnc(-c2cc(OCC(F)(F)F)cc(OCC(F)(F)F)c2)c(N)n1 [CEN-193]
99

====

Target: DiHydroFolate Reductase (DHFR) (Rattus norvegicus, UniProt Q920D2)
Construct: from tissue; host or cells: rat liver homogenate supernatant
Experiment: Inhibition of binding of [3H]methotrexate to rat liver homogenate supernatant
Details: 125 μM; read-out: [3H]mtx binding (% inhibition @ 125 μM)
measuredMetric: inhibition at 125 µM (%)
Numbers only; they are read as %.

Identify inhibition at 125 µM associated with the molecule Nc1nnc(-c2ccc3cc(Br)ccc3c2)c(N)n1
105

Identify inhibition at 125 µM associated with the molecule Nc1nnc(-c2ccccc2Br)c(N)n1
101

Identify inhibition at 125 µM associated with the molecule Cn1nc(-c2ccc3ccccc3c2)c(N)nc1=N
6

====

Molecular target: hERG (Homo sapiens)
Sequence (Q12809 whole entry): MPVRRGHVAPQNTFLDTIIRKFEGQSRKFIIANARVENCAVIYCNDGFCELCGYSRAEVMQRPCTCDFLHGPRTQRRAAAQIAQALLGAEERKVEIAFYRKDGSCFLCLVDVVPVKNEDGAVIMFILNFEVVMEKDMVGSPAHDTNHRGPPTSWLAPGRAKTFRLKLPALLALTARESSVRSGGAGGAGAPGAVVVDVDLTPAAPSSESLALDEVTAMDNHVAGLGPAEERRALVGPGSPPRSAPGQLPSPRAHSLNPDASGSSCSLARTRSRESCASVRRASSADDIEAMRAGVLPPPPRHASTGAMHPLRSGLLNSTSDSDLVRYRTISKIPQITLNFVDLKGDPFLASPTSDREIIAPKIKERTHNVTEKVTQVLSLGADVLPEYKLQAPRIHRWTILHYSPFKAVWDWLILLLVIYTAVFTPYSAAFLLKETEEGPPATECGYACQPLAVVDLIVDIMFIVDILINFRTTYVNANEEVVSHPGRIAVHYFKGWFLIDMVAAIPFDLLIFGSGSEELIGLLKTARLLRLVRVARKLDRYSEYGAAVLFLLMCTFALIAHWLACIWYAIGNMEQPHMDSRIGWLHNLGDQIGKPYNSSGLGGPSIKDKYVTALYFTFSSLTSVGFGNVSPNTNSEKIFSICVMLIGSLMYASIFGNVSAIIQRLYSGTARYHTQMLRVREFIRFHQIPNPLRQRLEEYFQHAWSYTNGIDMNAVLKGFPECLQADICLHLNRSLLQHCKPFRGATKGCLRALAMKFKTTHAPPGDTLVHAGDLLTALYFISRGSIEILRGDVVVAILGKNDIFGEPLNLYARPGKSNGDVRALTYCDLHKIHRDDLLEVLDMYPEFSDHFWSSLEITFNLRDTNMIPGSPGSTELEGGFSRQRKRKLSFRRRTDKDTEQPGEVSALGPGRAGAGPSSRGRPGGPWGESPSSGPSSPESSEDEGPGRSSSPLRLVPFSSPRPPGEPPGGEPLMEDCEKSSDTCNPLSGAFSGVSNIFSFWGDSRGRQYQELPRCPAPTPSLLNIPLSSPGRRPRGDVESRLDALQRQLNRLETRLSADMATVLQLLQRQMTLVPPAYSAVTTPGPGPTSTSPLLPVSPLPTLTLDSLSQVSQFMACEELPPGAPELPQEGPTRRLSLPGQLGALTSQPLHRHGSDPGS
Assay: hERG: inhibition of binding of [3H]astemizole to HEK-293 cells expressing human recombinant hERG
Below, each of the compounds is paired with its reported log10 IC50 value.
The common logarithm of IC50 in µM is what is listed.

>>> resultnumber("Nc1nnc(-c2cccc(Oc3ccccc3)c2)c(N)n1 [CEN-84]")
2.00
>>> resultnumber("Nc1nnc2c(n1)-c1cccc3cccc-2c13 [CEN-155]")
1.54
>>> resultnumber("Nc1ncc(-c2cc(Cl)cc(Cl)c2Cl)c(N)n1 [CEN-47, reference compound]")
1.54
>>> resultnumber("Cn1nc(-c2cccc3ccccc23)c(N)nc1=N [CEN-78]")
1.51
>>> resultnumber("Cn1nc(-c2ccccc2Oc2ccccc2)c(N)nc1=N [CEN-105]")
1.28
>>> resultnumber("Cn1nc(-c2cc(C(F)(F)F)cc(C(F)(F)F)c2)c(N)nc1=N [CEN-99]")
1.53
>>> resultnumber("Cn1nc(-c2cc(Cl)sc2Cl)c(N)nc1=N [CEN-80]")
1.79
>>> resultnumber("N=c1nc(N)c(-c2cc(Cl)cc(Cl)c2Cl)nn1CC(F)F [CEN-85]")
1.20
>>> resultnumber("Nc1nnc(C2c3ccccc3Oc3ccccc32)c(N)n1 [CEN-182, 3,5-Diamino-6-(9-xanthyl)-1,2,4-triazine]")
1.95
>>> resultnumber("CCc1nc(N)nc(N)c1-c1ccc(Cl)cc1 [CEN-48, reference compound]")
1.66

Identify log10 IC50 associated with the compound N=c1nc(N)c(-c2cccc(Cl)c2Cl)nn1CC(F)(F)F [CEN-67]
1.76

Identify log10 IC50 associated with the compound CCn1nc(-c2cc(C(C)(C)C)cc(C(C)(C)C)c2)c(N)nc1=N [CEN-189]
1.95

Identify log10 IC50 associated with the compound CCn1nc(-c2ccc3ccccc3c2)c(N)nc1=N [CEN-75]
0.48

Identify log10 IC50 associated with the compound Nc1nnc2c3ccccc3c3ccccc3c2n1 [CEN-128]
1.72

Identify log10 IC50 associated with the compound Cn1nc(-c2cccc(C(F)(F)F)c2Cl)c(N)nc1=N [CEN-177]
1.54

====

Biological target: DiHydroFolate Reductase (DHFR) (Rattus norvegicus)
Construct: from tissue; host or cells: rat liver homogenate supernatant
Experiment: Inhibition of binding of [3H]methotrexate to rat liver homogenate supernatant
Conditions: 125 μM; read-out: [3H]mtx binding (% inhibition @ 125 μM)
Below, each of the molecules is paired with its reported inhibition at 125 µM value.
Numbers only; they are read as %.

Guide cases for inhibition at 125 µM, answers given:
>>> resultnumber("CCOc1cc2ccccc2cc1-c1nnc(N)nc1N [CEN-141]")
30
>>> resultnumber("CCn1nc(-c2cccs2)c(N)nc1=N [CEN-62]")
46
>>> resultnumber("Nc1nnc(-c2cccc(-c3nnc(N)nc3N)c2)c(N)n1 [CEN-186]")
83
>>> resultnumber("Nc1cnc(-c2ccc3ccccc3c2)c(N)n1 [CEN-88, 2,6-Diamino-3-(2-naphthyl)pyrazine]")
82
>>> resultnumber("Nc1nnc(-c2ccc3c(c2)OCCO3)c(N)n1 [CEN-109]")
80

Next item in the queue.
Identify inhibition at 125 µM associated with the molecule CC(C)(C)c1cc(-c2nnc(N)nc2N)cc(C(C)(C)C)c1 [CEN-187]
99

====

Where a name gives a salt, the structure may show the parent alone.
Below, each of the compounds is paired with its reported melting point value.

Guide cases for melting point, answers given:
>>> result("Nc1nnc(-c2cccc3c2CCCC3)c(N)n1 [CEN-94]")
"202 to 204 °C"
>>> result("CC(C)(C)c1ccc(-c2nnc(N)nc2N)cc1 [CEN-181]")
"275 to 276 °C"
>>> result("CCn1nc(-c2cccc(-c3ccccc3)c2)c(N)nc1=N (as salt: methanesulfonate) [CEN-162]")
"224 to 226 °C"
>>> result("Nc1nnc(-c2ccc(Br)s2)c(N)n1 [CEN-124]")
"265 to 268 °C"
>>> result("Cn1nc(-c2ccc3ccccc3c2)c(N)nc1=N (as salt: methanesulfonate) [CEN-76]")
"243 to 244 °C"
>>> result("COc1cc(-c2nnc(N)nc2N)cc(OC)c1OC [CEN-95]")
"309 to 311 °C"
>>> result("Nc1nnc(-c2cccc(OC(F)(F)C(F)F)c2)c(N)n1 [CEN-108]")
"199 to 200 °C"
>>> result("Nc1nnc(-c2ccccc2Oc2ccccc2)c(N)n1 [CEN-97]")
"200 to 202 °C"

Identify melting point associated with the compound Nc1nnc(-c2cc(Br)c(Br)o2)c(N)n1 [CEN-121]
272 to 275 °C

Identify melting point associated with the compound Nc1nnc(-c2cc(OCC(F)(F)F)cc(OCC(F)(F)F)c2)c(N)n1 [CEN-193]
185 to 187 °C

Identify melting point associated with the compound Cn1nc(-c2cc(F)c(F)cc2Cl)c(N)nc1=N (as salt: mesylate) [CEN-204]
319 to 321 °C

Origin of measurements: patent US8691818B2
